B1: Chromodomain-helicase-DNA-binding protein 3, residues 374 to 426; numbered along this chain, Q12873 (parent)
chain: YETDHQDYCEVCQQGGEIILCDTCPRAYHLVCLDPELDRAPEGKWSCPHCEKE

# Variants of: B1
# protocol_notes: abundance fitness (aPCA) (normalised: wild type 0, dead -1); higher = more abundant; growth selection in yeast, the domain comes from the species named
# experimental_setup: Homo sapiens
Assignment: determine reported abundance fitness for the given variants.
Form: value (number only, do not type unit).

Form: variant = D4K ; abundance fitness = -0.041

Given item V31T , the value recorded as its abundance fitness is -0.3

abundance fitness recorded for this variant, Q6D , is -0.294

E36P has a reported abundance fitness of -0.039
